growth reference
- System: SK-OV-3 ovarian
- METHOD_DESCRIPTION: NCI-60 one-dose screen, 48 h (100 = growth as untreated, 0 = no growth, -100 = all killed)
- EXPERIMENTAL_CONDITIONS: 10 µM
This is part of a sample that, as a whole, favours compounds with a hit. Of some 83,000 tested, about 20% had one in any assay.

{"MOL": "CC(C)c1cc([N+](=O)[O-])cc([N+](=O)[O-])c1O", "growth, %": 100}
{"MOL": "O=C1CCC(=O)N1SC(Cl)(Cl)Cl", "growth, %": 109}
{"MOL": "COc1ccc2c(ccc3oc([N+](=O)[O-])cc32)c1", "growth, %": -12.6}
{"MOL": "Cc1cc(C)c(C[N+](C)(C)C)c(C)c1C", "growth, %": 7.37}
{"MOL": "N#CCc1ccccc1", "growth, %": 98.4}
{"MOL": "C[C@@H]1C[C@@H]([C@H](O)CC2CC(=O)NC(=O)C2)C(=O)[C@@H](C)C1", "growth, %": 10.9}

Provenance of the data: PubChem BioAssay (NCI)
